This collection of values is drawn from patent US20230212304A1.

- Target entity: T1, recombinant human CTLA4 protein with human IgG1 Fc tag at the C-terminus (Acro biosystems, Cat#CT4-H5255) (human, UniProt P16410 37-162)
- T1 sequence (looked up): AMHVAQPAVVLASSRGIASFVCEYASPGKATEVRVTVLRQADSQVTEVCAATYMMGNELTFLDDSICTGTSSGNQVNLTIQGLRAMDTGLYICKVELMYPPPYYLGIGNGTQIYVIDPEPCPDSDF
- Assay name: cell-based or functional assay
Recorded endpoint: EC50 of IL-2 release (GS-J1 T cells + GS-C1/CD80 cells + human CTLA4-Fc, IL-2 HTRF)
Note: a bare number is incomplete; add the unit.

Answered cases to consult:
Binder: chimeric D1D5 anti-CTLA4 antibody (antibody, human IgG4 S228P, kappa, V domains shown, mouse variable domains on human IgG4/kappa, made in 293F cells) VH: EVKLVESGGGLVKPGGSLKLSCAASGFTFSDYGMAWVRQAPGKGPEWVAFISNLAYSVYYADTETGRFTISREDAKNTLYLEMSSLRSEDTAMYYCARSGLPYAMDYWGQGTSVTVSS VL: DIQMTQTTSSLSASLGDRVTISCRASQDISNYLNWYQQKPDGTVKLLIYYISRLHSGVPSRFSGSGSGTDFSLTISNLEQEDIATYFCQQGRMLPWTFGGGTRLEIKR
Measured: 82.1 nM
--
Binder: chimeric C1D1 anti-CTLA4 antibody (antibody, human IgG4 S228P, kappa, V domains shown, mouse variable domains on human IgG4/kappa, made in 293F cells) VH: EVKLDETGGGLVQPGRPLKLSCVASGFTFSDNWMNWVRQSPEKGLEWVAQIRNKPYNYETYYSDSVKGRFTISRDDSKSSVYLQMNNLRVEDMGIYYCTGGMDYWGQGTSVTVSS VL: DIQMTQSPASLSASVGETVTITCGASEIIYGALNWYQQKQGKSPQLLIYGATNLADGMSSRFSGSGSGRQYSLKISSLHPDDAATYYCQKILSPPPWTFGGGTKLEIKR
Measured: 34 nM
--
Binder: mouse anti-CTLA4 monoclonal antibody C1D1 (antibody, V domains shown, mouse mAb purified from hybridoma supernatant) VH: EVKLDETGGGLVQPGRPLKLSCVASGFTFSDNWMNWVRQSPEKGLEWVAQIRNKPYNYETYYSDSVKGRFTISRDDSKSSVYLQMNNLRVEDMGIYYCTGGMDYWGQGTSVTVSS VL: DIQMTQSPASLSASVGETVTITCGASEIIYGALNWYQQKQGKSPQLLIYGATNLADGMSSRFSGSGSGRQYSLKISSLHPDDAATYYCQKILSPPPWTFGGGTKLEIK
Measured: 30 nM
--
Binder: huC1D1-V8 (antibody, human IgG4 S228P, kappa, V domains shown, humanized IgG4/kappa; cell supernatant on Octet, purified antibody in Biacore, ELISA, FACS and the functional assay; also called hu CTLA4 C1D1-V8) VH: EVQLVESGGGLVQPGRSLRLSCTASGFTFSDNWMNWVRQAPGKGLEWVGQIRNKPYNYETYYSDSVKGRFTISRDDSKSIAYLQMNSLKTEDTAVYYCTGGMDYWGQGTTVTVSS VL: DIQMTQSPSSLSASVGDRVTITCGASEIIYGALNWYQQKPGKSPKLLIYGATNLADGVPSRFSGSGSGTDFTLTISSLQPEDVATYYCQKILSPPPWTFGGGTKVEIKR
Measured: 28.7 nM
--
Binder: mouse anti-CTLA4 monoclonal antibody D1D5 (antibody, V domains shown, mouse mAb purified from hybridoma supernatant) VH: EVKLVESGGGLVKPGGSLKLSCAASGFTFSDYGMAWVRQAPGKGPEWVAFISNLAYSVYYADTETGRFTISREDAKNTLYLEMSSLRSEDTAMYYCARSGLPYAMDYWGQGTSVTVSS VL: DIQMTQTTSSLSASLGDRVTISCRASQDISNYLNWYQQKPDGTVKLLIYYISRLHSGVPSRFSGSGSGTDFSLTISNLEQEDIATYFCQQGRMLPWTFGGGTRLEIK
Measured: 42.3 nM

Challenge: Consider the binder shown here: huD1D5-V9 (antibody, human IgG4 S228P, kappa, V domains shown, humanized IgG4/kappa; cell supernatant on Octet, purified antibody in Biacore, ELISA, FACS and the functional assay; also called hu CTLA4 D1D5-V9; huDID5-V9) VH: EVQLVESGGGLVKPGGSLRLSCAASGFTFSDYGMAWVRQAPGKGPEWVAFISNLAYSVYYADTETGRFTISRDDAKNSLYLQMNSLRAEDTAVYYCARSGLPYAMDYWGQGTTVTVSS VL: DIQMTQSPSSLSASVGDRVTITCRASQDISNYLNWYQQKPGKVPKLLIYYISRLHSGVPSRFSGSGSGTDFTLTISSLQPEDVATYYCQQGRMLPWTFGGGTKVEIKR What is its recorded EC50 of IL-2 release (GS-J1 T cells + GS-C1/CD80 cells + human CTLA4-Fc, IL-2 HTRF)?
Response given: 27.3 nM
